Hey, just so you know, these numbers are from paper PMC13480645.

Give measured IC50 of neutralisation of SARS-CoV-2 pseudovirus (HeLa-hACE2 cells) for each item. Keep answers brief.
- tested_on: SARS-CoV-2 S-2P protein (SARS-CoV-2, ancestral (Wuhan-Hu-1) …, UniProt P0DTC2, stabilised)
- experiment: cell-based or functional assay
Report the value in µg/mL with no unit label.

What does the record list as IC50 of neutralisation of SARS-CoV-2 pseudovirus (HeLa-hACE2 cells) for eCC65.1-1 (antibody, V domains shown) VH: VQLVQSGAEVKKPGASVKVSCKASGYEFTSQYMHWVRQAPGQGLEWMGIIDPSGGGASYAQKFRDRVSMTRDTPTSTVYMELRSLRSEDTAVYYCASLWFGNPSWRDYWGQGTLVTVSS VL: VMTQSPGTLSLSPGERATLSCRASQTVNSNYLAWYQQKPGQAPRLLIYHASSRATGIPDRFSGSGSGTDFTLTISRLEPEDFAVYYCQQYGASPPLFTFGPGTKLEIK ?
5.79

Look at this binder and give its reported IC50 of neutralisation of SARS-CoV-2 pseudovirus (HeLa-hACE2 cells). eCC65.1-11 (antibody, V domains shown) VH: VQLVQSGAEVKKPGASVKVSCKASGYEFTSQYMHWVRQAPGQGLEWMGIIDPSGGGASYAQKFRDRVSMTRDTPTSTVYMELRSLRSEDTAVYYCASLWFGNPSWRDYWGQGTLVTVSS VL: VMTQSPGTLSLSPGERATLSCRASSTVNSNYLAWYQQKPGQAPRLLIYHASSRATGIPDRFSGSGSGTDFTLTISRLEPEDFAVYYCQQYGASPPLFTFGPGTKLEIK
5.26

Look at this binder and give its reported IC50 of neutralisation of SARS-CoV-2 pseudovirus (HeLa-hACE2 cells). eCC65.1-4 (antibody, V domains shown) VH: VQLVQSGAEVKKPGASVKVSCKASGYTFESQYMHWVRQAPGQGLEWMGIIDPKGGGTSYAQKFRDRVSMTRDTPTSTVYMELRSLRSEDTAVYYCASLWFETPSWRDYWGQGTLVTVSS VL: VMTQSPGTLSLSPGERATLSCRASQTVNKNYLAWYQQKPGQAPRLLIYGASSRATGIPDRFSGSGSGTDFTLTISRLEPEDFAVYYCQTYGSSPPLFTFGPGTKLEIK
1.84
